Where do the numbers come from? From ChEMBL document CHEMBL5233229.

biological target: Ubiquitin carboxyl-terminal hydrolase 7 (Homo sapiens); assay: Inhibition of human USP7 using Ub-EKL as substrate
Sequence (Q93009 whole entry): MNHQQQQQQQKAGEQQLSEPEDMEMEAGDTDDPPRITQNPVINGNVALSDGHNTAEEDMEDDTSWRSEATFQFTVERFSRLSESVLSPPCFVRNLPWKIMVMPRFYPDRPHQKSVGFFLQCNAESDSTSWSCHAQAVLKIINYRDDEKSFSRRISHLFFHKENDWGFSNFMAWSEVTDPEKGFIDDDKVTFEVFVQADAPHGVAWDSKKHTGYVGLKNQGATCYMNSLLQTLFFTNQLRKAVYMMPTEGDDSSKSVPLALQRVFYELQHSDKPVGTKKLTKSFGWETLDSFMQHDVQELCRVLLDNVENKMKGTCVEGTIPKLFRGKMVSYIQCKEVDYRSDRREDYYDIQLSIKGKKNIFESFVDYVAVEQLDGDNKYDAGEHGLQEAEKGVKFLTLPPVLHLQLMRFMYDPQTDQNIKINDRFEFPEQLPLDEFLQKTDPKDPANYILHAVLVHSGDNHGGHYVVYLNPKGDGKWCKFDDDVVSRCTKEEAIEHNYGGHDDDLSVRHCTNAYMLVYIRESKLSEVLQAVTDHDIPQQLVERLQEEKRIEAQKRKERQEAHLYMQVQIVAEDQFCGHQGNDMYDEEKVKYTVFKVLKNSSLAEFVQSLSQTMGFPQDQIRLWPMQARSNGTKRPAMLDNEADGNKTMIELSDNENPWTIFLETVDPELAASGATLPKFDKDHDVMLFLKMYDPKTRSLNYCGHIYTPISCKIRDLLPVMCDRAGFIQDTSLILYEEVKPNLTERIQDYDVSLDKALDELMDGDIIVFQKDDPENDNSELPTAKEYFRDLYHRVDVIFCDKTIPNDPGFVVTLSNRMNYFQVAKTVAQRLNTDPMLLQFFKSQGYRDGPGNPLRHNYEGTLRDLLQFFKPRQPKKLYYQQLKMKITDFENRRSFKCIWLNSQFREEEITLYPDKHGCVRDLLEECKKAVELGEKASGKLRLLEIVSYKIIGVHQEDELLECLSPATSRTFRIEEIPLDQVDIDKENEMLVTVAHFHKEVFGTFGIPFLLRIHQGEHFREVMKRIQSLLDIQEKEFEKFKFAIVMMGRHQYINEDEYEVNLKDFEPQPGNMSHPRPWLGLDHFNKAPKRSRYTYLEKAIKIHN
READOUT NAME: EC50 (nM)

>  <COMPOUND>
O=C(Nc1ccc2c(c1)S(=O)(=O)C=C2)c1nnc(Sc2c(F)cncc2Cl)s1

>  <READOUT NAME>
EC50

>  <LIMIT OPERATOR>
=

>  <TEST RESULT>
5000

$$$$
>  <COMPOUND>
Cc1c(NC(=O)c2nnc(Sc3c(Cl)cncc3Cl)s2)ccc2c1S(=O)(=O)CC2

>  <READOUT NAME>
EC50

>  <LIMIT OPERATOR>
=

>  <TEST RESULT>
2000

$$$$
>  <COMPOUND>
O=C(Nc1cccc(Cl)n1)c1nnc(Sc2c(Cl)cncc2Cl)s1

>  <READOUT NAME>
EC50

>  <LIMIT OPERATOR>
<

>  <TEST RESULT>
1000

$$$$
>  <COMPOUND>
CN(C)CCCNC1CS(=O)(=O)c2cc(NC(=O)c3cnc(Sc4c(Cl)cncc4Cl)s3)ccc21 (stereo not given)

>  <READOUT NAME>
EC50

>  <LIMIT OPERATOR>
<

>  <TEST RESULT>
1000

$$$$
>  <COMPOUND>
CN(C)CCCOc1ccc(NC(=O)c2nnc(Sc3c(Cl)cncc3Cl)s2)cc1

>  <READOUT NAME>
EC50

>  <LIMIT OPERATOR>
<

>  <TEST RESULT>
1000

$$$$
>  <COMPOUND>
CN(C)CCCOc1ccc(NC(=O)c2nnc(Sc3c(Cl)cncc3Cl)o2)cc1

>  <READOUT NAME>
EC50

>  <LIMIT OPERATOR>
>

>  <TEST RESULT>
10000

$$$$
>  <COMPOUND>
CC1CS(=O)(=O)c2cc(NC(=O)c3cnc(Sc4c(Cl)cncc4Cl)s3)ccc21 (stereo not given)

>  <READOUT NAME>
EC50

>  <LIMIT OPERATOR>
=

>  <TEST RESULT>
2000

$$$$
>  <COMPOUND>
O=C(Nc1ccc2c(c1)S(=O)(=O)C=C2)c1nnc(Sc2c(Cl)cccc2Cl)s1

>  <READOUT NAME>
EC50

>  <LIMIT OPERATOR>
>

>  <TEST RESULT>
10000

$$$$
>  <COMPOUND>
O=C(Nc1ccc2c(c1)S(=O)(=O)C=C2)c1nnc(Sc2c(Cl)cncc2Cl)s1

>  <READOUT NAME>
EC50

>  <LIMIT OPERATOR>
<

>  <TEST RESULT>
1000

$$$$
>  <COMPOUND>
CC1CS(=O)(=O)c2cc(NC(=O)c3nnc(Sc4c(Cl)cncc4Cl)s3)ccc21 (stereo not given)

>  <READOUT NAME>
EC50

>  <LIMIT OPERATOR>
=

>  <TEST RESULT>
1000

$$$$
>  <COMPOUND>
CN(C)CCCNc1ccc(NC(=O)c2nnc(Sc3c(Cl)cncc3Cl)s2)cc1

>  <READOUT NAME>
EC50

>  <LIMIT OPERATOR>
<

>  <TEST RESULT>
1000

$$$$
>  <COMPOUND>
O=C(Nc1ccc2c(c1)S(=O)(=O)C=C2)c1sc(Sc2c(Cl)cncc2Cl)nc1C(F)(F)F

>  <READOUT NAME>
EC50

>  <LIMIT OPERATOR>
=

>  <TEST RESULT>
5000

$$$$
>  <COMPOUND>
CN(C)CCCOc1ccc(NC(=O)c2cnc(Sc3c(Cl)cncc3Cl)s2)cc1

>  <READOUT NAME>
EC50

>  <LIMIT OPERATOR>
>

>  <TEST RESULT>
10000

$$$$
>  <COMPOUND>
O=C(Nc1cnc2ccccc2c1)c1nnc(Sc2c(Cl)cncc2Cl)s1

>  <READOUT NAME>
EC50

>  <LIMIT OPERATOR>
=

>  <TEST RESULT>
1000

$$$$
>  <COMPOUND>
CN(C)CCOc1cccc(NC(=O)c2nnc(Sc3c(Cl)cncc3Cl)s2)c1

>  <READOUT NAME>
EC50

>  <LIMIT OPERATOR>
<

>  <TEST RESULT>
1000

$$$$
>  <COMPOUND>
CS(=O)(=O)c1cccc(NC(=O)c2nnc(Sc3c(Cl)cncc3Cl)s2)c1

>  <READOUT NAME>
EC50

>  <LIMIT OPERATOR>
=

>  <TEST RESULT>
1000

$$$$
>  <COMPOUND>
CN(C)CCCOc1ccc(NC(=O)c2nnc(Sc3c(Cl)cncc3Br)s2)cc1

>  <READOUT NAME>
EC50

>  <LIMIT OPERATOR>
<

>  <TEST RESULT>
1000

$$$$
>  <COMPOUND>
O=C(Nc1ccc2c(c1)C(=O)CC2)c1nnc(Sc2c(Cl)cncc2Cl)s1

>  <READOUT NAME>
EC50

>  <LIMIT OPERATOR>
=

>  <TEST RESULT>
1000

$$$$
>  <COMPOUND>
O=C(Nc1ccc2c(c1)S(=O)(=O)CC2)c1nnc(Sc2c(Cl)cncc2Cl)s1

>  <READOUT NAME>
EC50

>  <LIMIT OPERATOR>
<

>  <TEST RESULT>
1000

$$$$
>  <COMPOUND>
O=C(Nc1ccc(NCCCN2CCOCC2)cc1)c1nnc(Sc2c(Cl)cncc2Cl)s1

>  <READOUT NAME>
EC50

>  <LIMIT OPERATOR>
<

>  <TEST RESULT>
1000

$$$$
